The measurements presented in this section are drawn from ChEMBL document CHEMBL4808187.

Measurement notes: Antiarrhythmic activity in hiPSC-CMs assessed as cessation dose of cell beating
Condition: human, ipsc-cm
Entries and their Activity values follow.
Please respond with the number in µM and leave the unit unwritten.

Sample Cc1cc(C)cc(OCC(NCCO)c2ccccc2)c1.Cl (centres undefined) — what was its Activity? 66

Sample CNC(C)COc1c(C)cccc1C.Cl (centres undefined) — what was its Activity? 66

Sample CCNC(COc1cccc(C)c1C)c1ccccc1.Cl (centres undefined) — what was its Activity? 133

Sample Cc1cccc(C)c1OCC(N)c1ccc(C(F)(F)F)cc1.Cl (centres undefined) — what was its Activity? 66

Sample Cl.NC(COc1cc(C(F)(F)F)cc(C(F)(F)F)c1)c1ccccc1 (centres undefined) — what was its Activity? 133

Sample Cc1ccc(OCC(N)c2ccccc2)cc1C.Cl (centres undefined) — what was its Activity? 66

Sample Cc1cccc(C)c1OCC(C)NCCc1ccccc1.Cl (centres undefined) — what was its Activity? 133

Sample CC(N)COc1cccc(C(F)(F)F)c1.Cl (centres undefined) — what was its Activity? 200

Sample Cc1ccc(C(N)COc2c(C)cccc2C)cc1.Cl (centres undefined) — what was its Activity? 66

Sample COc1ccccc1OCC(N)c1ccccc1.Cl (centres undefined) — what was its Activity? 22
